Please go through the items and note down their glycan array binding signal (z-score).
system.name: Fuc(a1-2)Gal(b1-4)GlcNAc(b1-3)Gal(b1-4)GlcNAc(b1-2)Man(a1-3)[Fuc(a1-2)Gal(b1-4)GlcNAc(b1-3)Gal(b1-4)GlcNAc(b1-2)Man(a1-6)]Man(b1-4)GlcNAc(b1-4)GlcNAc
protocol: glycan array binding signal (z-score within array); higher = stronger binding
test.context: glycan notation: IUPAC condensed, linker removed
About 410 targets per protein were measured; listed, in parts, are those with the strongest signals and a random draw of the rest.

# input # lookup: glycan array binding signal (z-score) of pTFF2 (Sus scrofa), P01359 (protein) KPAACRCSRQDPKNRVNCGFPGITSDQCFTSGCCFDSQVPGVPWCFKPLPAQESEECVMEVSARKNCGYPGISPEDCAARNCCFSDTIPEVPWCFFPMSVEACHY
# output 0.716

# input # lookup: glycan array binding signal (z-score) of SP15308F-bth-333-19-333 (Bacteroides thetaiotaomicron) (protein) SCNNEWESEQYVQMVSFKAPVNAQGVTPIYIRYKPEGKVTYQLPLIVSGSTMNSKDLNVHVGLDLDTLDVLNVEHFGSRKELFFKPLENKYYEFPETVQIPAGECTSLLPIDFALKDLDQVDKWVLPLAIQSNDPSHNYQANPRKFYRRAMLRISPFNDYSGQYSATAYKVYFKGNEKEAIVPEYHTSYVIDDKTIFFYAGLIDIDRLDRKYYKIKFEFTEEKIDLQTRKLKISSDNEDINLVVKGQPSYTVEEEMDATRPYLKHIYVTINNLEYEFTDYTSVPGYPLEYVVKGSLTMERKINTQIPDEDQAIEW
# output 3.55

# input # lookup: glycan array binding signal (z-score) of CGL (Crenomytilus grayanus), H2FH31 (protein) MTTFLIKHKASGKFLHPYGGSSNPANNTKLVLHSDIHERMYFQFDVVDERWGYIKHVASGKIVHPYGGQANPPNETNMVLHQDRHDRALFAMDFFNDNIMHKGGKYIHPKGGSPNPPNNTETVIHGDKHAAMEFIFVSPKNKDKRVLVYA
# output 0.855

# input # lookup: glycan array binding signal (z-score) of EULS2 M3 (Oryza sativa) (protein) MVYCRANPNYAMTARNGAVVLAPANPKDEYQHWIKDMRWSTSIKDEEGYPAFALVNKATGQAIKHSLGQSHPVRLVPYNPEVMDESVLWTESRDVGNGFRCIRMVNNIYLNFDAFHGDKYHGGVRDGTDIVLWKLCEGDSLRWKIQPYYILEQKLISEEDLNSAVDHHHHHH
# output 0.177
